experiment: protein stability index of a GFP-peptide fusion (GPS, HEK-293T) (PSI 1-6); higher = more stable; details: treatment: DMSO; c terminus: a fixed tail appended;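 further: 24-mer peptide tiles fused after GFP, lentivirally expressed, FACS-sorted into six equal bins by GFP/DsRed ratio, decoded by Illumina sequencing, PSI is the read-weighted mean bin number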
propertyMeasured: protein stability index
The answer should be written as a number, with no unit following it.

Illustrative cases are given below, each with its answer.
sequenceChain	protein stability index
HFKKQTIYRFLKLHPRGKNNFSPL [FEM1C]	2.71
GELGSIGDHERAIDFSPYLEPLGA [CEBPB]	4.21
ADWAVMDVVNYFRTVGFEEQASAF [SAMD13]	2.21
VNVTIHFRLKTINLQSLINNEIPD [MCOLN1]	3.28
PVVSAVWGHCEIRMRYLNGLDPEP [SPSB1]	2.14

Would you mind telling me what protein stability index value was observed for EQLMYIKEDLIIPHHHSFYDFIVT [FAM50A] ?
2.42

Next sequence up: RRMAESLRIPEGPIDQGPAIGRVR [FUT8]
4.22

Note, next up: FKAKEAAALGSRGSCSTEVEKETQ [ATP6V1G1]
2.94

Would you mind doing IESKIPLNMEEPPVEEPEPKPDRL [SLC19A2] as well?
5.36

Can you handle PIVNISEVLGPLCLMLLMGTVHCQ [PHTF1] next?
3.34

Similarly, EERVRVLQGVRLSENVVNRMKEPS [CHCHD6] ?
4.6

Thanks! And IRDFEARKCPVHGKTMELFCQTDQ [TRIM29] ?
3.54

Same again, this time with TAERKQEQKTGTEAEAADSGAVGA [MFSD9]
5.56

Source listed as the supplement of paper PMC10567573.
